# credit: ChEMBL document CHEMBL5365448

# PROTOCOL_NOTES: Clearance in rat at 1 mg/kg, iv measured after 24 hrs by LC/MS/MS analysis
# Type: ADME, organism-based
# TEST_CONTEXT: in vivo
ASSAY_METRIC: clearance (mL/min/kg)
Quick note: give the figure in mL/min/kg, leave out the unit.

Fill blank: measured clearance of the compound Cn1c(=O)cc(N2CCC[C@@H](N)C2)n(Cc2ccccc2C#N)c1=O is ____. 49

* * *

# PROTOCOL_NOTES: Bioavilability in iv dosed rat
# Format: ADME, organism-based
# TEST_CONTEXT: in vivo
ASSAY_METRIC: bioavailability (%)
Quick note: give the figure in %, leave out the unit.

Fill blank: measured bioavailability of the molecule N[C@H]1C[C@@H](N2Cc3nn4c(C(F)(F)F)cc(C(F)(F)F)nc4c3C2)CO[C@@H]1c1cc(F)ccc1F is ____. 71

* * *

# PROTOCOL_NOTES: Half life in mouse at 1 mg/kg, iv measured after 0.083 hrs by liquid chromatography tandem mass spectrometry analysis
# Format: ADME, organism-based
# TEST_CONTEXT: in vivo
ASSAY_METRIC: half-life (h)
Quick note: give the figure in h, leave out the unit.

Fill blank: measured half-life of the compound N[C@H]1C[C@@H](N2CC3=C(C2)CS(=O)(=O)C3)CO[C@@H]1c1cc(F)ccc1F is ____. 44.4

* * *

# PROTOCOL_NOTES: Cmax in dog at 3 mg/kg, po measured after 24 hrs by LC/MS/MS analysis
# Format: ADME, organism-based, Canis lupus familiaris
# Design: time 24 hrs, dose 3 mg/kg, route po
# TEST_CONTEXT: in vivo
ASSAY_METRIC: Cmax (ng/mL)
Quick note: give the figure in ng/mL, leave out the unit.

Fill blank: measured Cmax of the molecule Cn1c(=O)cc(N2CCC[C@@H](N)C2)n(Cc2ccccc2C#N)c1=O is ____. 447

* * *

# PROTOCOL_NOTES: Half life in Cynomolgus monkey at 10 mg/kg, po measured after 24 hrs by LC/MS/MS analysis
# Assay type: ADME, organism-based, Macaca fascicularis
# TEST_CONTEXT: in vivo
ASSAY_METRIC: half-life

Fill blank: measured half-life of the compound Cn1c(=O)cc(N2CCC[C@@H](N)C2)n(Cc2ccccc2C#N)c1=O is ____. 5.6 h

* * *

# PROTOCOL_NOTES: Half life in rat
# Format: ADME
# TEST_CONTEXT: in vivo
ASSAY_METRIC: half-life (h)
Quick note: give the figure in h, leave out the unit.

Sample answers from the record:
Fill blank: measured half-life of the molecule N[C@@H](CC(=O)N1CCSC1)Cc1cc(F)c(F)cc1F is ____. 1.1

Fill blank: measured half-life of the molecule N[C@H]1C[C@@H](N2Cc3nn4c(C(F)(F)F)cc(C(F)(F)F)nc4c3C2)CO[C@@H]1c1cc(F)ccc1F is ____. 25.4

Next item in the queue.
Fill blank: measured half-life of the molecule CC#CCn1c(N2CCC[C@@H](N)C2)nc2c1c(=O)n(Cc1nc3cc(F)ccc3s1)c(=O)n2C is ____. 7.3

* * *

# PROTOCOL_NOTES: Half life in rat at 10 mg/kg, po measured after 24 hrs by LC/MS/MS analysis
# Format: ADME, organism-based
# TEST_CONTEXT: in vivo
ASSAY_METRIC: half-life (h)
Quick note: give the figure in h, leave out the unit.

Fill blank: measured half-life of the compound Cn1c(=O)cc(N2CCC[C@@H](N)C2)n(Cc2ccccc2C#N)c1=O is ____. 2.8
